Before we begin, note that these IC50 values for Corticotropin-releasing factor receptor 1 (Rattus norvegicus) originate from several publications.
- measured.target: Corticotropin-releasing factor receptor 1 (Rattus norvegicus)
- Sequence (P35353 whole entry): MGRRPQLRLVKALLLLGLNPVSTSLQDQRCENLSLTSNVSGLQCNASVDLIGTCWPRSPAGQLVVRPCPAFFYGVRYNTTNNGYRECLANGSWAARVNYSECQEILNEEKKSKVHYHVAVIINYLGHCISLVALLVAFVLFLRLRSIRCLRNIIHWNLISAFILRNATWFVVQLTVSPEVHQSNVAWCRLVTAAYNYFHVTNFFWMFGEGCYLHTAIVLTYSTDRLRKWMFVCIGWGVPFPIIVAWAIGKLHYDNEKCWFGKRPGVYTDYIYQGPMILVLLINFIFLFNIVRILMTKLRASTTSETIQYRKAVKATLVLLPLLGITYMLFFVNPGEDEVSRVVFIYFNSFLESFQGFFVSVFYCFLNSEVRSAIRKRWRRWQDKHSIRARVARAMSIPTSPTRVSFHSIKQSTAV
assay.endpoint: IC50 (nM)

Examples with answers:
# molecule, measured.target, IC50, nM
data = [
    ("Cc1cc(N2CCOCC2)c2c(n1)N(c1ccc(C(C)C)cc1Br)CC(=O)N2", "Corticotropin-releasing factor receptor 1 (Rattus norvegicus)", 126),
    ("Cc1nc(Nc2c(Cl)cc(C(F)(F)F)cc2Cl)c(=O)n(C(C)C2CC2)n1 (stereo unspecified)", "Corticotropin-releasing factor receptor 1 (Rattus norvegicus)", 14),
]

a: CCCCN(CC)c1cc(C)nc2c1NC(=O)CN2c1ccc(C#N)cc1C
b: COCC(C1CC1)n1nc(C)nc(Nc2c(Cl)cc(C(F)(F)F)cc2Cl)c1=O (stereo unspecified)
Problem: From the recorded data, which exceeds the other in IC50: a or b ? Use the label to indicate which entry you chose.
Result: b
(b: 11 nM, a: 3.3 nM)

---

Record: compiled IC50 on UniProt P35353 from multiple reports.
assay.endpoint: IC50 (nM)

# example entries with known answers
# compound, IC50, nM
rows = [
    ("CCCN(CCOC)c1cc(C)nc2c1NC(=O)CN2c1cc(OC)c(OC)cc1C", 43),
    ("CCN(c1cc(C)nc2c1NC(=O)CN2c1cc(F)c(OC)cc1Cl)C(C)C", 1.5),
    ("CC[C@H](C1CC1)n1cc(Cl)nc(Nc2cc(C)c(C)cc2C)c1=O", 2.4),
    ("Cc1cc(C)c(Nc2nc(Cl)cn([C@H](C)C3CC3)c2=O)c(C)c1", 1.7),
]

P: CCC(CC)Cn1cc(Cl)nc(Nc2cc(C)c(OC)cc2C)c1=O
Q: CCc1nc2c(n1C(C)C1CCC1)C(=O)N(C)CN2c1ccc(Cl)cc1Cl (stereo not given)
Problem: When their IC50 values are compared, which is larger, P or Q ? The response must carry the label of the picked entry.
Result: P

---

Kindly find below pIC50 information for Corticotropin-releasing factor receptor 1 (Rattus norvegicus) taken from the literature.
- measured.target: Corticotropin-releasing factor receptor 1 (Rattus norvegicus)
- Sequence (P35353 whole entry): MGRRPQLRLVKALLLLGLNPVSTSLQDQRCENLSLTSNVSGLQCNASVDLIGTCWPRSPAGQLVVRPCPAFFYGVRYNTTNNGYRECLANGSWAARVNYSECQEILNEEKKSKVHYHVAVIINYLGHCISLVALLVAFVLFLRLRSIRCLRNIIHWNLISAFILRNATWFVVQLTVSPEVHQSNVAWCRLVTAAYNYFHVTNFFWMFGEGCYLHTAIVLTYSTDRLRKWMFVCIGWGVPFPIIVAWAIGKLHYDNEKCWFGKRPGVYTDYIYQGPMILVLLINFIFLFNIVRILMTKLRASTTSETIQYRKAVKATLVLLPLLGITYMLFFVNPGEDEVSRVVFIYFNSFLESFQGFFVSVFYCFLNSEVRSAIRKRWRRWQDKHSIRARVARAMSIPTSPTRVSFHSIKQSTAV
pIC50: −log10 of the molar value.
assay.endpoint: pIC50

A: CCOc1ccc(Nc2nc(C)nn(C(C)C3CC3)c2=O)c(C(F)(F)F)n1 (stereo not given)
B: COC[C@H](C1CC1)n1cc(Cl)nc(Nc2c(C)nc(OC)nc2OC)c1=O
Problem: Short answer wanted: higher pIC50, A or B ? Let me know the label of the one you choose.
Result: A

I: COC[C@@H](C1CC1)n1cc(Cl)nc(Nc2cc(C)c(OCc3ccccc3)cc2C)c1=O
II: C[C@H](C1CC1)n1cc(Cl)nc(Nc2c(Cl)cc(C(F)(F)F)cc2Cl)c1=O
III: CCCN(CC1CCC1)c1cc(C)nc2c1NC(=O)CN2c1ccc(C#N)cc1Cl
IV: Cc1nc(Nc2c(Cl)cc(S(C)(=O)=O)cc2Cl)c(=O)n(C(C)C2CC2)n1 (stereo not given)
Problem: Ordering: ascending pIC50. Please reply with the labels ordered as requested. Many thanks.
Result: I, IV, II, III

P: COc1cc(C)c(Nc2nc(Cl)cn([C@@H](COCCF)C3CC3)c2=O)cc1C
Q: CCC(C1CC1)n1nc(C)nc(Nc2cc(C)c(C#N)cc2C)c1=O (stereo not given)
R: COC[C@@H](C1CC1)n1nc(C)nc(Nc2cc(C)c(OC(F)F)nc2C)c1=O
Problem: With regard to pIC50, arrange the entries in ascending order, please. The labels, placed in the requested order, form the answer.
Result: Q, R, P
(Q: 8.03, R: 8.96, P: 9.34)

---

The entries below pair molecules with pIC50 values for Corticotropin-releasing factor receptor 1 (Rattus norvegicus), as found in several publications.
pIC50: −log10 of the molar value.
assay.endpoint: pIC50

# molecule, measured.target, pIC50
measured = [
    ("CCC(CC)Cn1cc(Cl)nc(Nc2c(C)cc(C)cc2C)c1=O", "Corticotropin-releasing factor receptor 1 (Rattus norvegicus)", 7.41),
]

1: CCCCN(CC)c1cc(C)nc2c1NC(=O)CN2c1ccc(C(C)=O)cc1C
2: CC[C@H](COC)n1cc(Cl)nc(Nc2c(Cl)cc(C(F)(F)F)cc2Cl)c1=O
3: CCCCN(CC)c1nc(C)nc2c1NC(=O)CN2c1ccc(OC)cc1C
Problem: Sequence the entries by pIC50, beginning with the highest number. List the labels in the requested order.
Result: 2, 1, 3

I: CC[C@H](COC)n1cc(Cl)nc(Nc2c(Cl)cc(C#N)cc2Cl)c1=O
II: CCc1nc2c(n1C(CC)C1CC1)C(=O)N(C)CN2c1ccc(OC)cc1Cl (stereo not given)
III: CCC(CC)Oc1cc(C)nc(Oc2c(C)cc(C)cc2C)c1C
IV: CCCCN(CC)c1cc(C)nc2c1NC(=O)CN2c1ccc(OC)nc1OC
V: CCC(CC)Nc1cc(C)nc(Nc2c(C)cc(C)cc2C)c1C
Problem: Reorder the items by pIC50, least to greatest. Put the labels in the order asked and list them.
Result: V, II, III, I, IV
(V: 6.12, II: 6.95, III: 8.17, I: 8.77, IV: 9.09)

---

Recorded pIC50 for compounds tested on Corticotropin-releasing factor receptor 1 (Rattus norvegicus), drawn from a number of studies.
- measured.target: Corticotropin-releasing factor receptor 1 (Rattus norvegicus)
- Sequence (P35353 whole entry): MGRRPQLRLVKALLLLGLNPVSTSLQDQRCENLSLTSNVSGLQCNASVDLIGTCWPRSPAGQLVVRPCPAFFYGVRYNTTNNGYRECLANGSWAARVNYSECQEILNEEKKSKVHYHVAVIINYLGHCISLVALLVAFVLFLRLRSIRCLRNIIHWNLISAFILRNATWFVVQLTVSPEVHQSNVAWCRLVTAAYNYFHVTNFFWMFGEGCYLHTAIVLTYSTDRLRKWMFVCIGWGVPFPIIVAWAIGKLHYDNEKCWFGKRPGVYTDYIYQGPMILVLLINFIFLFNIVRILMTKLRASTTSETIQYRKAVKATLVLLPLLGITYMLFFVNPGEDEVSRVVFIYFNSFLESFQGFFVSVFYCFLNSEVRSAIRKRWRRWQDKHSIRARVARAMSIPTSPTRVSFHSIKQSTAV
pIC50: −log10 of the molar value.
assay.endpoint: pIC50

I: COc1cc(Nc2nc(C)nn(C(C)C3CC3)c2=O)c(C)cc1C#N (stereo not given)
II: CC[C@H](C1CC1)n1cc(Cl)nc(N(CC)c2cc(C)c(C)cc2C)c1=O
III: COC[C@@H](C)n1cc(Cl)nc(Nc2c(Cl)cc(C#N)cc2Cl)c1=O
Problem: Please list these compounds in decreasing order of pIC50. Put the labels in the requested order and write them down.
Result: II, III, I

---

pIC50: −log10 of the molar value.
Note to self: these compounds have pIC50 reported for Corticotropin-releasing factor receptor 1 (Rattus norvegicus, UniProt P35353) in various publications.
assay.endpoint: pIC50

# smiles.code, pIC50
records = [
    ("Cc1cc(C#N)cc(Cl)c1Nc1nc(Cl)cn([C@H](C)C2CC2)c1=O", 8.54),
]

I: COc1cc(Cl)c2c(c1)CCN2c1nc(Cl)cn([C@@H](COCCF)C2CC2)c1=O
II: COc1nc(C)c(Nc2nc(Cl)cn([C@H](COC(=O)Nc3cc(Cl)cc(Cl)c3)C3CC3)c2=O)cc1C
III: Cc1cc(Nc2nc(Cl)cn([C@H](C)C3CC3)c2=O)c(C)nc1OC(F)F
IV: COC[C@@H](C1CC1)n1cc(Cl)nc(Nc2c(C)nc(OC)nc2OC)c1=O
Problem: List from greatest to least pIC50. # format: label list in the order the request specifies
Result: III, II, I, IV
(III: 9.52, II: 8.77, I: 8.49, IV: 7.51)
